- assay target: Gal4/hFXR fusion protein (Homo sapiens, UniProt Q96RI1)
- Sequence (Q96RI1 262-486 limits assumed): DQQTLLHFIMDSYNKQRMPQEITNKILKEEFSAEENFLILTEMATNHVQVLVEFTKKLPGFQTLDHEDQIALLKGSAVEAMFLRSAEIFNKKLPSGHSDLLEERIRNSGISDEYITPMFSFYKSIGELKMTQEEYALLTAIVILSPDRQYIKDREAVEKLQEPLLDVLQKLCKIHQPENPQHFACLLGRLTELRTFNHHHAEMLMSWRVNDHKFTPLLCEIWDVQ
- assay text: Gal4/hFXR fusion protein agonist activity in human 293 cells (luciferase reporter)
# if measured EC50 < 2 µM: Y  # else: N

INSERT INTO results (molecule, assay_target, label_class) VALUES
  ('CC(C)OC(=O)C1CN(C(=O)c2cccc(C(F)(F)F)c2)CC(C)(C)c2cc(C#N)[nH]c21 (stereo not drawn)', 'Gal4/hFXR fusion protein (Homo sapiens, UniProt Q96RI1)', 'N'),
  ('CC(C)OC(=O)C1CN(C(=O)c2cccc(F)c2)CC(C)(C)c2cc(C#N)[nH]c21 (stereo not drawn)', 'Gal4/hFXR fusion protein (Homo sapiens, UniProt Q96RI1)', 'Y'),
  ('CC(C)OC(=O)C1CN(C(=O)c2ccc(F)cc2)CC(C)(C)c2cc(C#N)[nH]c21 (stereo not drawn)', 'Gal4/hFXR fusion protein (Homo sapiens, UniProt Q96RI1)', 'Y'),
  ('CC(C)OC(=O)C1CN(C(=O)c2ccc(Cl)cc2)CC(C)(C)c2cc(C#N)[nH]c21 (stereo not drawn)', 'Gal4/hFXR fusion protein (Homo sapiens, UniProt Q96RI1)', 'N'),
  ('CC(C)OC(=O)C1CN(C(=O)C2CCCCC2)CC(C)(C)c2cc(C#N)[nH]c21 (stereo not drawn)', 'Gal4/hFXR fusion protein (Homo sapiens, UniProt Q96RI1)', 'Y'),
  ('CC(C)OC(=O)C1CN(C(=O)C2CCOCC2)CC(C)(C)c2cc(C#N)[nH]c21 (stereo not drawn)', 'Gal4/hFXR fusion protein (Homo sapiens, UniProt Q96RI1)', 'N'),
  ('CC(C)OC(=O)C1CN(C(=O)c2cccc(Cl)c2)CC(C)(C)c2cc(C#N)[nH]c21 (stereo not drawn)', 'Gal4/hFXR fusion protein (Homo sapiens, UniProt Q96RI1)', 'Y'),
  ('CC(C)OC(=O)C1CN(C(=O)c2ccc(C#N)cc2)CC(C)(C)c2cc(C#N)[nH]c21 (stereo not drawn)', 'Gal4/hFXR fusion protein (Homo sapiens, UniProt Q96RI1)', 'N'),
  ('CC(C)OC(=O)C1CN(C(=O)c2ccc(F)c(F)c2)CC(C)(C)c2cc(C#N)[nH]c21 (stereo not drawn)', 'Gal4/hFXR fusion protein (Homo sapiens, UniProt Q96RI1)', 'Y');
